Source: ChEMBL document CHEMBL4376805

test system: Plasmodium falciparum; test: Antimalarial activity against chloroquine/ pyrimethamine-resitant Plasmodium falciparum W2 assessed as reduction in parasite growth preincubated for 48 hrs followed by addition of [3H]Hypoxanthine and measured after 48 hrs by [3H]Hypoxanthine incorporation assay; assay type: functional, organism-based
Measured quantity: pIC50
pIC50 is defined as minus the log10 of a concentration measured in mol/L.

Smiles text	pIC50
CCOC(=O)[C@H](Cc1ccccc1)NP(=O)(CCO[C@@H](Cn1cnc2c(=O)[nH]c(N)nc21)C(=O)OC)N[C@@H](Cc1ccccc1)C(=O)OCC	4.30

Would you kindly look at the next entry?
Data request: Form field: reported pIC50 of `CCOC(=O)[C@H](Cc1ccccc1)NP(=O)(CCO[C@@H](Cn1cnc2c(=O)[nH]cnc21)C(=O)OC)N[C@@H](Cc1ccccc1)C(=O)OCC`
Data returned: 4.30
